Hi there, I'd appreciate the recorded 2nd phase response (10 to 30 min), licking time for every entry that follows.
# System: mice
# procedure-text: Analgesic, anti-inflammatory activity test (formalin test)
# Format: in vivo
# measurement-conditions: male ICR mice; 1.0% formalin (20 μl injected); sample 40 mg/kg intraperitoneal, 15 min before stimulation; n=10, average value±standard error; control 183.51 ± 20.10
Answers are plain numbers, in s.

{"columns": ["compound", "numeric-result"],
 "data": [
  ["O=C(O)C1C(c2ccc(O)cc2)C(C(=O)O)C1c1ccc(O)cc1 (stereo not drawn) [Sample 2, 4,4′-dihydroxy-α-truxillic acid]", 7.12],
  ["COC(=O)C1C(c2ccc(O)cc2)C(C(=O)OC)C1c1ccc(O)cc1 (stereo not drawn) [Sample 8, dimethyl 4,4′-dihydroxy-α-truxillate]", 122.70],
  ["O=C(O)C1C(C(=O)O)C(c2ccc(Cl)cc2)C1c1ccc(Cl)cc1 (stereo not drawn) [Sample 6, 4,4′-dichloro-β-truxinic acid]", 34.44]
]}

Lab note: next compound to report on.
Asked: Give its 2nd phase response (10 to 30 min), licking time value. Item: O=C(O)C1C(C(=O)O)C(c2ccccc2)C1c1ccccc1 (stereo not drawn) [Sample 4, β-truxinic acid]
Given back: 74.75

Reference source for all entries: patent US20040092595A1
